molecular target: substance P receptor from human lymphoblast cells (IM-9) (Homo sapiens); construct: The receptor was prepared from human lymphoblast cells (IM-9); endogenous in cells; test: Radioligand receptor binding inhibitory assay using receptor from human lymphoblast cells (IM-9), 125I-BHSP; details: 25° C., 30 minutes, pH 7.4
Sequence (P25103 whole entry): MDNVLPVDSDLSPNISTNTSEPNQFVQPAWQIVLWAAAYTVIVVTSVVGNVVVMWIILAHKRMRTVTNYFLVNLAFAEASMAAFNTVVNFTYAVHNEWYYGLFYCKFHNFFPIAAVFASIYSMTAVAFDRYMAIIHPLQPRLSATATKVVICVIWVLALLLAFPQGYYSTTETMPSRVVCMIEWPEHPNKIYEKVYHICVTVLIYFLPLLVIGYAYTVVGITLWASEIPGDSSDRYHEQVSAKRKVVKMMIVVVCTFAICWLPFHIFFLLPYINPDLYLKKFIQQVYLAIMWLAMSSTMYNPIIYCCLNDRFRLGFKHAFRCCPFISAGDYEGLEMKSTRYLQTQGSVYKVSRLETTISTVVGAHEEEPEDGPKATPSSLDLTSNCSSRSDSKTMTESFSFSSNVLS
pIC50: −log10 of the molar value.
measure-name: pIC50

# compound, assay-target, pIC50
rows = [
    ("CN(Cc1c(-c2ccccc2)c2cc(Cl)ccc2c(=O)n1C)C(=O)c1cc(C(F)(F)F)cc(C(F)(F)F)c1 [Example 38]", "substance P receptor from human lymphoblast cells (IM-9) (Homo sapiens)", 7.14),
]

I: CN(Cc1c(-c2ccccc2)c2ccccc2c(=O)n1C)C(=O)c1cc(C(F)(F)F)cc(C(F)(F)F)c1 [Example 37]
II: Cc1cc2c(-c3ccccc3)c(CN(C)C(=O)c3cc(C(F)(F)F)cc(C(F)(F)F)c3)n(C)c(=O)c2cc1C [Example 36]
## Task Which entry has a larger number for pIC50, I or II ? Lab note: record the label of whichever item you select.
## Result I
